EXPERIMENTAL_TARGET: Akt2 (Homo sapiens, UniProt P31751)
Construct: unspecified tag, removed (detagged) (cleaved yes); purchased SignalChem and Proteros (Akt2); Merck Millipore (PDK1) 14-452 (PDK1); none given for Akt2
Sequence (P31751 whole entry): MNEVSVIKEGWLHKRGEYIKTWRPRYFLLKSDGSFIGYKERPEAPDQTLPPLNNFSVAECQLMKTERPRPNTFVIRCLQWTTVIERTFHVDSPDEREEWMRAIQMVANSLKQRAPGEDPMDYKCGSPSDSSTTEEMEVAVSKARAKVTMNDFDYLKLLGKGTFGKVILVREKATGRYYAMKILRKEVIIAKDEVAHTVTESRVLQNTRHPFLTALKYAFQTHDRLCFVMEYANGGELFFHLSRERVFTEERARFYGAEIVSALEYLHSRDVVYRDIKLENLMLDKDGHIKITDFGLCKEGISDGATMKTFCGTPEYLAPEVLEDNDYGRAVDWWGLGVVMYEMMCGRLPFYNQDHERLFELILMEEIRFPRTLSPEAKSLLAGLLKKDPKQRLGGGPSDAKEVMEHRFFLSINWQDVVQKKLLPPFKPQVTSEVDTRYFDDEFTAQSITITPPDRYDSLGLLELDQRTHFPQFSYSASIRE
ASSAY_EXPLANATION: Akt activation assay (PDK1-mediated activation, LANCE Ultra crosstide TR-FRET), Akt2
Format: biochemical
RUN_PARAMETERS: read-out: Biological Assay 1 IC50 (nM) Akt2
ASSAY_READOUT: IC50 (nM)

{"COMPOUND": "CCN(C(C)=O)[C@H]1CC[C@H](CC(=O)Nc2cc(-c3ccccc3)c(-c3ccc([C@]4(N)C[C@](C)(O)C4)cc3)nn2)CC1 [Example 106]", "READING_UNIT": "nM", "IC50": 210}

P = C[C@H](N)c1ccc(-c2ncc(NC(=O)C[C@H]3CC[C@H](NC(=O)C(C)(C)C(F)(F)F)CC3)cc2-c2ccccc2)cc1 [Example A10]
Q = N[C@]1(c2ccc(-c3ncc(NC(=O)C[C@H]4CC[C@H](N5CCOC5=O)CC4)cc3-c3ccccc3)cc2)C[C@@H](F)C1 [Example 78]
Prompt: Kindly identify which of P and Q has the larger recorded IC50 value. Answer = label.
Response: P

1 = CC(=O)N(C)[C@H]1CC[C@H](CC(=O)Nc2cc(-c3ccccc3)c(-c3ccc(C4(N)CC4)c(F)c3)nn2)CC1 [Example A54]
2 = CC(C)N(C(=O)C1CC1)[C@H]1CC[C@H](CC(=O)Nc2cc(-c3ccccc3)c(-c3ccc([C@]4(N)C[C@](C)(O)C4)cc3)cn2)CC1 [Example A108]
Prompt: Smaller IC50 value? Options are 1 and 2 Answer = label.
Response: 2
(2: 360 nM, 1: 6300 nM)

* * *

EXPERIMENTAL_TARGET: p-Akt1 in LNCaP cells (Homo sapiens)
Construct: SureFire assays to detect cellular p-Akt1, p-Akt2 and p-Akt3 levels in WM115 cells (Akt2/3) and LNCaP cells (Akt1); endogenous in cells; host or cells: LNCaP (ECACC 89110211)
Sequence (P31749 whole entry): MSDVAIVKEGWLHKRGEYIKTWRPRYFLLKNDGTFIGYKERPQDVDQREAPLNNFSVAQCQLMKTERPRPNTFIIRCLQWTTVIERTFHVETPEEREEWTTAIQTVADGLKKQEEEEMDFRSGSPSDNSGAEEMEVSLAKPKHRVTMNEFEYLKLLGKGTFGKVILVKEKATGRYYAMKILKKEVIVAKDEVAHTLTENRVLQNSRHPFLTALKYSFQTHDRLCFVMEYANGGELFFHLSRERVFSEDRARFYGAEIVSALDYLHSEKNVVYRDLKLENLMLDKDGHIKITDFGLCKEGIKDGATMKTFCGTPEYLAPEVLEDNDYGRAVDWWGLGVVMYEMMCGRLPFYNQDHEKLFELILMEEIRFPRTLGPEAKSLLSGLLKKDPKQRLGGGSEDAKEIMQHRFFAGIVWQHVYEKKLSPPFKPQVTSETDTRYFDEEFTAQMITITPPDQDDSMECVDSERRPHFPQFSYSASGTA
ASSAY_EXPLANATION: Phospho-Akt cellular SureFire assay, p-Akt1 in LNCaP cells
Type: cell-based
RUN_PARAMETERS: read-out: Biological Assay 2 IC50 (nM) Akt1 LNCaP
ASSAY_READOUT: IC50 (nM)

a = COCCN(C)[C@H]1CC[C@H](CC(=O)Nc2cc(-c3ccccc3)c(-c3ccc([C@]4(N)C[C@](C)(O)C4)cc3)cn2)CC1 [Example 128]
b = CCN(C(=O)C1CC1)[C@H]1CC[C@H](CC(=O)Nc2cc(-c3ccccc3)c(-c3ccc([C@]4(N)C[C@](C)(O)C4)cc3)nn2)CC1 [Example 114]
c = CC(=O)N(C)[C@H]1CC[C@H](CC(=O)Nc2cc(-c3ccsc3)c(-c3ccc([C@]4(N)C[C@](C)(O)C4)cc3)cn2)CC1 [Example 93]
Prompt: Sort by IC50, descending. As an answer, provide the labels arranged in the order called for.
Response: a, b, c

* * *

EXPERIMENTAL_TARGET: p-Akt3 in WM115 cells (Homo sapiens, UniProt Q9Y243)
Construct: SureFire assays to detect cellular p-Akt1, p-Akt2 and p-Akt3 levels in WM115 cells (Akt2/3) and LNCaP cells (Akt1); endogenous in cells; host or cells: WM115 (ECACC 91061232), insulin-stimulated
Sequence (Q9Y243 whole entry): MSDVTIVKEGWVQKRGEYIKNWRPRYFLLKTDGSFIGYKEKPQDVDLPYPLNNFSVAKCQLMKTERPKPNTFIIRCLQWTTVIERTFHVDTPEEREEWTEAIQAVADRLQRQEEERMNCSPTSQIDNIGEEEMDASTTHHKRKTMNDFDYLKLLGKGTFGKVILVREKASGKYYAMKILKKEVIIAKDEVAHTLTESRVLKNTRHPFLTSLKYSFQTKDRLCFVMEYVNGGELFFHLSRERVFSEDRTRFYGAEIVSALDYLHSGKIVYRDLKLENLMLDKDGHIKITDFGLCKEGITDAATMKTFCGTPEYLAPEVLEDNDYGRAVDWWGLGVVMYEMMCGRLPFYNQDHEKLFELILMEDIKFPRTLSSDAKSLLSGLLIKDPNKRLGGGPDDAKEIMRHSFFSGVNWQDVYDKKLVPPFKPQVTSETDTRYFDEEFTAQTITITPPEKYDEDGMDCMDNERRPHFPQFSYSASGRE
ASSAY_EXPLANATION: Phospho-Akt cellular SureFire assay, p-Akt3 in WM115 cells
Assay type: cell-based
RUN_PARAMETERS: insulin stimulated, read-out: Biological Assay 2 IC50 (nM) Akt3 WM115
ASSAY_READOUT: IC50 (nM)

a = COC(=O)N(C)[C@H]1CC[C@H](CC(=O)Nc2cc(-c3ccsc3)c(-c3ccc(C4(N)CCC4)cc3)nn2)CC1
b = N[C@]1(c2ccc(-c3nnc(NC(=O)C[C@H]4CC[C@H](N5CCOC5=O)CC4)cc3-c3ccsc3)cc2)C[C@@H](F)C1
Prompt: Kindly identify which of a and b has the larger recorded IC50 value. Answer = label.
Response: a

I = COC(=O)N(C)[C@H]1CC[C@H](CC(=O)Nc2cc(-c3ccccc3F)c(-c3ccc(C4(N)CCC4)cc3)cn2)CC1
II = COC(=O)N[C@H]1CC[C@H](CC(=O)Nc2cc(-c3ccccc3)c(-c3ccc(C4(N)CC4)c(F)c3)cn2)CC1
Prompt: Smaller IC50 value? Options are I and II Answer = label.
Response: I

I = N[C@]1(c2ccc(-c3nnc(NC(=O)C[C@H]4CC[C@H](N5CCCC5=O)CC4)cc3-c3ccccc3)cc2)C[C@@H](F)C1
II = CC(=O)N(C)[C@H]1CC[C@H](CC(=O)Nc2cnc(-c3ccc(C4(N)CC(F)(F)C4)cc3)c(-c3ccccc3)c2)CC1
III = CC(C)C(=O)N(C)[C@H]1CC[C@H](CC(=O)Nc2cnc(-c3ccc(C(C)(C)N)cc3)c(-c3ccccc3)c2)CC1
IV = CCC(=O)N(C)[C@H]1CC[C@H](CC(=O)Nc2cnc(-c3ccc([C@]4(N)C[C@](C)(O)C4)cc3)c(-c3ccccc3)c2)CC1
V = CCOC(=O)N(C)[C@H]1CC[C@H](CC(=O)Nc2cnc(-c3ccc(C(C)(C)N)cc3)c(-c3ccccc3)c2)CC1
Prompt: Please list these compounds in decreasing order of IC50. As an answer, provide the labels arranged in the order called for.
Response: V, III, II, I, IV
(V: 440 nM, III: 190 nM, II: 61 nM, I: 40 nM, IV: 7 nM)

P = CC(=O)N(C(C)C)[C@H]1CC[C@H](CC(=O)Nc2cnc(-c3ccc(C4(N)CCC4)cc3)c(-c3ccccc3)c2)CC1
Q = CN(C(=O)C1CC1)[C@H]1CC[C@H](CC(=O)Nc2cc(-c3ccccc3)c(-c3ccc(C4(N)CCC4)cc3)cn2)CC1
Prompt: Smaller IC50 value? Options are P and Q Answer = label.
Response: P

1 = CC(=O)N[C@H]1CC[C@H](C(C)C(=O)Nc2cnc(-c3ccc(C4(N)CCC4)cc3)c(-c3ccccc3)c2)CC1 (relative stereo)
2 = CCC(=O)N(C)[C@H]1CC[C@H](CC(=O)Nc2cc(-c3ccsc3)c(-c3ccc(C(C)(C)N)cc3)nn2)CC1
Prompt: Kindly identify which of 1 and 2 has the larger recorded IC50 value. Answer = label.
Response: 2
